Assay: Human HepG2 cell viability assay in 384 well format
Format: toxicity, cell-based
Parameters: dose 125 nL, time 70.5 hour; concentration not given beside the values
Details: HepG2 cells, read-out: Inhibition
Outcome Measure: cytotoxicity at 70.5 h (%)
One number for each entry, in %.

Req: Look up cytotoxicity at 70.5 h: COc1ccc(-c2nnc(C(C)N3CCOCC3)o2)cc1 (centres undefined)
Resp: -2.92

Req: Look up cytotoxicity at 70.5 h: COCCN1CCO[C@@H]2CN(S(=O)(=O)c3cccnc3)C[C@@H]2C1
Resp: 3.84

Req: Look up cytotoxicity at 70.5 h: CC(C)Cc1cc(CNC(=O)c2ccccc2C2CCNC2)no1 (centres undefined)
Resp: -17.5

Req: Look up cytotoxicity at 70.5 h: N#Cc1c(F)cccc1Nc1cnn(CC(O)CN2CCOCC2)c1 (centres undefined)
Resp: -102

Req: Look up cytotoxicity at 70.5 h: CC(=O)NCCC(=O)NCc1ccc(Br)cc1Cl
Resp: -0.899

Req: Look up cytotoxicity at 70.5 h: O=c1c2cccnc2cnn1CC(O)c1ccc(F)c(F)c1 (centres undefined)
Resp: -6.63

Req: Look up cytotoxicity at 70.5 h: CN1CCC2(CC1)CN(C(=O)c1cccnc1)c1ccc(Cl)cc12
Resp: -10.6

Req: Look up cytotoxicity at 70.5 h: NCc1cnn(-c2ccccc2C(=O)NCCCn2ccnc2)c1
Resp: -6.34

Req: Look up cytotoxicity at 70.5 h: CCC(NC(=O)C(C)(C)C)c1ccccc1C (centres undefined)
Resp: 25.3

Req: Look up cytotoxicity at 70.5 h: Cc1ncc2c(n1)CN(CCCc1nc3ccccc3o1)CC2
Resp: -0.537

Please go through the list and note cytotoxicity at 70.5 h for each molecule.
1. Cc1ccc(N(CC(=O)N2CCCCC2)C(=O)C2COCCO2)cc1 (centres undefined)
2. Cc1cc(C(C)(O)CNC(=O)C2(C)CCCC2)c(C)o1 (centres undefined)
3. CCCC(=O)N1CC[C@@H]2[C@H](CC1)N(Cc1cccc(C)n1)CCS2(=O)=O
4. CCS(=O)(=O)c1ncc(CN2CCOCC2)n1CCCc1ccccc1

Resp:
1. -2.98
2. -0.0569
3. -2.09
4. 19.9

Please go through the list and note cytotoxicity at 70.5 h for each molecule.
1. CC(NC(=O)N1CCC(OCc2ccccc2)CC1)c1nncn1C (centres undefined)
2. Cc1cccc(CN2CCN(C(=O)c3cc(Cl)c[nH]c3=O)CC2)c1
3. COCc1nc(C(=O)N2CCCC2c2noc(C(C)C)n2)cs1 (centres undefined)
4. CC(C)CN1C(=O)COC[C@@H]1[C@H](O)c1ccc(NC(=O)C2CC2)cc1
5. CCOCCN1CCN(c2ncccc2C#N)CC1CC (centres undefined)

Resp:
[-11.3, -4.23, -0.699, 5.4, -3.73]

Please go through the list and note cytotoxicity at 70.5 h for each molecule.
1. CCc1nc(Cn2nc(C3CCNCC3)n(-c3ccccc3)c2=O)cs1
2. Nc1cc(CCCNC(=O)NC2CCCC2)nn1-c1ccccc1
3. Cc1nccn1-c1ccc(NC(=O)C2CCCN2CC2CC2)cc1 (centres undefined)
4. CCN1CCC2(COCc3cnc(-c4cccnc4)nc32)C1 (centres undefined)
5. O=C(O)c1cc(-c2cccs2)nc2c(Br)cnn12

Resp:
-5.68
-102
-1.14
-13.9
3.58

* * *

Assay: Human HepG2 cell viability assay in 384 well format
Format: toxicity, cell-based
Parameters: dose 125 nL, time 70.5 hour; concentration not given beside the values
Settings: HepG2 cells, read-out: Inhibition
I'd be grateful if you could share measured cytotoxicity at 70.5 h for these entries.
Give bare numbers, in %.

Below: 3 compounds and their reported cytotoxicity at 70.5 h.
Req: Look up cytotoxicity at 70.5 h: CO[C@H]1CCN(C(=O)Cc2ccccn2)[C@H]1Cc1ccncc1
Resp: -7.06

Req: Look up cytotoxicity at 70.5 h: COc1cc(CN(C(=O)Nc2cccnc2OC)C2CC2)ccc1O
Resp: -19.7

Req: Look up cytotoxicity at 70.5 h: CCc1nc2n(n1)CC(NCc1nc(C)ccc1O)CC2 (configuration not stated)
Resp: -8.85

Please go through the list and note cytotoxicity at 70.5 h for each compound.
1. COc1ccc(Cl)cc1NCC(=O)N(Cc1cccnc1)C1CC1
2. CCc1nccn1C1CCCN(C(=O)c2csc(COC)n2)C1 (configuration not stated)
3. COc1c(C2CCCN2CC(=O)Nc2cc(C)on2)c(C)nn1C (configuration not stated)

Resp:
1. -7.28
2. -17.8
3. 12.2

Please go through the list and note cytotoxicity at 70.5 h for each compound.
1. COCCCN(C)C(=O)c1cccc(Nc2cnccn2)c1
2. O=C(O)CCc1cc2n(n1)CCCN(C(=O)c1ccc(Cl)s1)C2
3. Cc1cncc(C2CCN(Cc3ccncc3)CC2)n1

Resp:
1: 24.1; 2: -22.4; 3: -7.83

Please go through the list and note cytotoxicity at 70.5 h for each compound.
1. O=c1[nH]cnc2[nH]c(N3CCOCC3)nc12
2. c1cc(-c2nccn2CCc2nc3c(s2)CCC3)ccn1
3. CCC(OC)C(=O)NCc1cc2n(n1)CCCN(C1CCCCC1)C2 (configuration not stated)

Resp:
26.5
12.9
-9.86

* * *

I'd be grateful if you could share measured cytotoxicity at 70.5 h for these entries.
Assay: Human HepG2 cell viability assay in 384 well format
Assay type: toxicity, cell-based
Design: dose 125 nL, time 70.5 hour; concentration not given beside the values
Conditions: HepG2 cells, read-out: Inhibition
Answers are plain numbers, in %.

Below: 5 molecules and their reported cytotoxicity at 70.5 h.
Req: Look up cytotoxicity at 70.5 h: COC(=O)c1cccc2nc([C@H]3CCN(Cc4ccccc4C)C3)oc12
Resp: -14.2

Req: Look up cytotoxicity at 70.5 h: COC(=O)c1ncccc1N1CCC(C(O)c2ccccc2)CC1 (configuration not stated)
Resp: -6.81

Req: Look up cytotoxicity at 70.5 h: CC(=O)c1ccc(CNC(=O)c2cc(C#N)cn2C)nc1C
Resp: -4.66

Req: Look up cytotoxicity at 70.5 h: COc1cccc(C(C(=O)O)N2CCC(Cn3cccn3)CC2)c1OC (configuration not stated)
Resp: -9.71

Req: Look up cytotoxicity at 70.5 h: Cc1cnn(C2CN(C(C)c3nc(-c4ccccc4)no3)C2)c1 (configuration not stated)
Resp: -8.84

Please go through the list and note cytotoxicity at 70.5 h for each molecule.
1. O=C(C1CC(=O)N(c2ccccc2)C1)N1CCC2(CC1)OCCO2 (configuration not stated)
2. COC(=O)CNC(=O)c1sc(-c2ccc(Cl)s2)nc1C
3. Cc1ccc(CCC(=O)N2CCCC(n3cncn3)C2)c(C)c1 (configuration not stated)
4. CC(=O)Nc1cnc(-n2ccnc2)nc1
5. Cc1nccn1C1CCCN(C(=O)c2ccc3c(c2)nc(C)n3C)C1 (configuration not stated)
6. Cc1c(C(=O)N2CCNC(=O)C2)sc2nc[nH]c(=O)c12

Resp:
1. 5.21
2. -3.49
3. -3.58
4. -1.27
5. -3.08
6. 13.4

Req: Look up cytotoxicity at 70.5 h: CCn1cc(CNC2CCN(c3cccc(Cl)c3)C2)cn1 (configuration not stated)
Resp: -3.2

* * *

I'd be grateful if you could share measured cytotoxicity at 70.5 h for these entries.
Test: Human HepG2 cell viability assay in 384 well format
Assay type: toxicity, cell-based
Design: dose 125 nL, time 70.5 hour; concentration not given beside the values
Details: HepG2 cells, read-out: Inhibition
One number for each entry, in %.

Below: 10 compounds and their reported cytotoxicity at 70.5 h.
Req: Look up cytotoxicity at 70.5 h: O=C(NC[C@H]1OC[C@@H](NC2COC2)[C@@H]1O)C1CCCC1
Resp: -8.61

Req: Look up cytotoxicity at 70.5 h: N#Cc1ccccc1CN(CCO)Cc1ccsc1
Resp: -14.1

Req: Look up cytotoxicity at 70.5 h: CN1CCN(Cc2noc(CC3CCc4ccccc43)n2)CC1 (configuration not stated)
Resp: -7.61

Req: Look up cytotoxicity at 70.5 h: Cn1cc(Cl)cc1C(=O)N1CCCN(Cc2ccccc2)CC1
Resp: -8.08

Req: Look up cytotoxicity at 70.5 h: c1ccc2oc(N3CCCC3Cn3cncn3)nc2c1 (configuration not stated)
Resp: -3.56

Req: Look up cytotoxicity at 70.5 h: O=C(CN1CCOc2ccc(Cl)cc21)NCc1ncc[nH]1
Resp: -2.35

Req: Look up cytotoxicity at 70.5 h: COCCN1CCN(c2ccc(CN(C)C)cn2)CC1
Resp: 16.1

Req: Look up cytotoxicity at 70.5 h: CC1CCCN(C(=O)NCCCn2cncn2)C1 (configuration not stated)
Resp: -4.06

Req: Look up cytotoxicity at 70.5 h: Cc1[nH]c(=O)[nH]c(=O)c1CC(=O)N1CCCN(CC2CC2)C(C(C)C)C1 (configuration not stated)
Resp: 0.527

Req: Look up cytotoxicity at 70.5 h: Cn1cc(C(=O)CC2CCCN2C(=O)c2ccncc2F)cn1 (configuration not stated)
Resp: -9.05

Please go through the list and note cytotoxicity at 70.5 h for each compound.
1. O=C(NCc1ccccn1)[C@]12COC[C@H]1CN(Cc1cccnc1)C2
2. Cc1ccc(C(=O)O)cc1CNC(=O)CN1CC[C@](C)(O)C(C)(C)C1

Resp:
1: -7.77; 2: -6.88

Numbers sourced from ChEMBL document CHEMBL3507680.
